assay.endpoint: log10 vapour pressure (mmHg)
A bare number is all that is needed in reply.

Here is how some molecules turned out for log10 vapour pressure (mmHg).
{"molecule": "CC1CCCO1 (configuration not stated)", "assay.endpoint": "log10 vapour pressure (mmHg)", "reading": 1.99}
{"molecule": "Cc1ccc2nc3sc(=O)sc3nc2c1", "assay.endpoint": "log10 vapour pressure (mmHg)", "reading": -6.7}
{"molecule": "C=CC(=O)OCC", "assay.endpoint": "log10 vapour pressure (mmHg)", "reading": 1.59}
{"molecule": "COB(OC)OC", "assay.endpoint": "log10 vapour pressure (mmHg)", "reading": 2.13}
{"molecule": "CCCCCC(C)(C)C", "assay.endpoint": "log10 vapour pressure (mmHg)", "reading": 1.03}
{"molecule": "Clc1cc(-c2ccccc2)c(Cl)c(Cl)c1Cl", "assay.endpoint": "log10 vapour pressure (mmHg)", "reading": -4.43}
{"molecule": "CCCCCCCCCS", "assay.endpoint": "log10 vapour pressure (mmHg)", "reading": -0.881}
{"molecule": "CC(=O)O.CCCCCCCCCCCCNC(=N)N", "assay.endpoint": "log10 vapour pressure (mmHg)", "reading": -6.82}
{"molecule": "CC(C)(C)CCO", "assay.endpoint": "log10 vapour pressure (mmHg)", "reading": 0.389}
{"molecule": "CCOP(=S)(OCC)OC(Cl)C(Cl)(Cl)Cl (configuration not stated)", "assay.endpoint": "log10 vapour pressure (mmHg)", "reading": -3.1}

Req: Query: log10 vapour pressure (mmHg); subject: COCCCNc1nc(NC(C)C)nc(SC)n1
Resp: -6.55

Req: Subsequent entry: CCCCCCCCC(C)=O
Resp: -0.571

Req: Now the molecule ClCC1CO1 (configuration not stated)
Resp: 1.22

meta.source: the OPERA property sets (Mansouri et al. 2018)
